// data source = patent US20230357354A1

# SYSTEM NAME: recombinant His-tagged CD38 (Homo sapiens, UniProt P28907)
# PROTOCOL DESCRIPTION: Pepscan-based ELISA of His-tagged CD38 on CD31 peptide arrays
# Assay type: binding
# PARTICULARS: mimic type LOOP7 (single loop, mP2 CLIPS); sample with the highest signal
REPORTED PROPERTY: Value (binding intensity of His-tagged CD38), LOOP7 conformational peptide array (mAU)
Give the quantity in mAU, number only.

Study these solved cases before continuing.
| SUBSTANCE | RECORDED NUMBER |
| --- | --- |
| 202 (CFPEIIIQC) [compound 202] | 596 |
| 203 (CSSIVVNIC) [compound 203] | 364 |

# input Observed Value (binding intensity of His-tagged CD38), LOOP7 conformational peptide array on recombinant His-tagged CD38 (Homo sapiens, UniProt P28907) for 192 (CTAEYQVLC) [compound 192] , please.
# output 492

# input Observed Value (binding intensity of His-tagged CD38), LOOP7 conformational peptide array on recombinant His-tagged CD38 (Homo sapiens, UniProt P28907) for 175 (CLQSFADVC) [compound 175] , please.
# output 561

---

# SYSTEM NAME: recombinant His-tagged CD38 (Homo sapiens)
# PROTOCOL DESCRIPTION: Pepscan-based ELISA of His-tagged CD38 on CD31 peptide arrays
# Type: binding
# PARTICULARS: mimic type LOOP7 (single loop, mP2 CLIPS); sample with the highest signal
Entries and their measured Value (binding intensity of His-tagged CD38), LOOP7 conformational peptide array follow.
Give the quantity in mAU, number only.

| SUBSTANCE | SYSTEM NAME | RECORDED NUMBER |
| --- | --- | --- |
| 186 (CSYFIPEVC) [compound 186] | recombinant His-tagged CD38 (Homo sapiens) | 400 |
| 183 (CVLFYNISC) [compound 183] | recombinant His-tagged CD38 (Homo sapiens) | 502 |
| 193 (CAEYQVLVC) [compound 193] | recombinant His-tagged CD38 (Homo sapiens) | 508 |

# input What value of Value (binding intensity of His-tagged CD38), LOOP7 conformational peptide array has been reported for the following substance? 207 (CNITELFSC) [compound 207]
# output 512

---

# SYSTEM NAME: recombinant His-tagged CD38 (Homo sapiens)
# PROTOCOL DESCRIPTION: Pepscan-based ELISA of His-tagged CD38 on CD31 peptide arrays
# Format: binding
# PARTICULARS: mimic type LOOP7 (single loop, mP2 CLIPS); sample with the highest signal
Rule: Value (binding intensity of His-tagged CD38), LOOP7 conformational peptide array below 500 mAU gives class 1, anything at or above gives class 0.

Example results:
| SUBSTANCE | GROUP |
| --- | --- |
| 208 (CRISYDAQC) [compound 208] | class 1 |
| 196 (CQNFVILEC) [compound 196] | class 0 |
| 198 (CILEFPVEC) [compound 198] | class 0 |
| 167 (CEDVEYQSC) [compound 167] | class 0 |

Moving on to the next substance.
# input Determine whether this substance shows Value (binding intensity of His-tagged CD38), LOOP7 conformational peptide array lower than 500 mAU (ties excluded): 221 (CDIVLQSAC) [compound 221]
# output class 1
